Where a name gives a salt, the structure may show the parent alone.
The following are reported pIC50 results, target or system 5-HT2 (Rattus norvegicus, UniProt P14842).
Formally, pIC50 is defined as -log10 of the concentration c, with c in mol/L.

COMPOUND: Cc1ccccc1N1CCN(C(=O)C(Oc2ccc3[nH]cc(CCN)c3c2)c2ccccc2)CC1 (stereo not shown) [Example 9, hydrochloride]
SYSTEM NAME: 5-HT2 (Rattus norvegicus, UniProt P14842)
Sequence (P14842 whole entry): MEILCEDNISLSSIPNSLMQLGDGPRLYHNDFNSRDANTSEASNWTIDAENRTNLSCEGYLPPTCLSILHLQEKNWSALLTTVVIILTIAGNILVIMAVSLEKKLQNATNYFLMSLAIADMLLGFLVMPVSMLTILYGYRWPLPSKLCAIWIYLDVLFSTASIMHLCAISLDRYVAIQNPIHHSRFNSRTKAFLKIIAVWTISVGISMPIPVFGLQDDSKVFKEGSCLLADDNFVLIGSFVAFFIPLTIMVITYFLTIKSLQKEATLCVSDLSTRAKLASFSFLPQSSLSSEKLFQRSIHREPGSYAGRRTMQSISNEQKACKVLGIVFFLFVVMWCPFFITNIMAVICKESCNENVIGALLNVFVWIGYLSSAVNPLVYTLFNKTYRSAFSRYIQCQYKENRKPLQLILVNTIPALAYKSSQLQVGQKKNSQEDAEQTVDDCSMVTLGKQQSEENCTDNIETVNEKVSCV
pIC50: 6.26

Proceeding to the next compound to report its pIC50.
Lookup: Provide 5-HT2 (Rattus norvegicus, UniProt P14842) pIC50 reading for Cc1ccccc1N1CCN(C(=O)COc2ccc3[nH]cc(CCNC(=O)OC(C)(C)C)c3c2)CC1 [ID, hydrochloride] .
Found: 5.70

----------
# SYSTEM NAME: 5-HT1C (Sus scrofa, UniProt K7GSR7)
# Construct: serotonergic ligands to the porcine choroid plexus; from tissue; host or cells: porcine choroid plexus
# Sequence (K7GSR7 1-457): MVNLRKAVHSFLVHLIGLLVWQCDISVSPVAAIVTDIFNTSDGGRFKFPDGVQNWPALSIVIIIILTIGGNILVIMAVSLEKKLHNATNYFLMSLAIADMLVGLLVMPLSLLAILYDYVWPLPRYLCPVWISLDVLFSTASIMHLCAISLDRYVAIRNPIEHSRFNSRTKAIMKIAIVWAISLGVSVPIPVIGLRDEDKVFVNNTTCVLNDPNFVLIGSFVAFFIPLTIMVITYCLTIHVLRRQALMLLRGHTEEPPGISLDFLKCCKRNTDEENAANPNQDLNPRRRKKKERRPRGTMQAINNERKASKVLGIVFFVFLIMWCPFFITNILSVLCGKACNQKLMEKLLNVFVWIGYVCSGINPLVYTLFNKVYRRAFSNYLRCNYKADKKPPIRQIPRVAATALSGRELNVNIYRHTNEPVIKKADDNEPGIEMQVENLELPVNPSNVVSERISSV
# MEASUREMENT DESCRIPTION: 5-HT1C receptor binding (Pazos et al.)
# Set-up: species or system porcine
# EXPERIMENTAL PARAMETERS: porcine choroid plexus (title of cited method); read-out: IC50 5-HT1C
Structures can show the parent of a compound that is named as a salt.
// IC50 lookup, one value per entry

Reference set (2 entries):
COMPOUND: NCCc1c[nH]c2ccc(OC(C(=O)N3CCN(c4cccc5ccccc45)CC3)c3ccccc3)cc12 (stereo not drawn) [Example 10, hydrochloride]
SYSTEM NAME: 5-HT1C (Sus scrofa, UniProt K7GSR7)
VALUE REPORTED: > 1000 nM
--
COMPOUND: COc1cccc(N2CCN(C(=O)COc3ccc4[nH]cc(CCN)c4c3)CC2)c1 [Example 6, hydrochloride]
SYSTEM NAME: 5-HT1C (Sus scrofa, UniProt K7GSR7)
VALUE REPORTED: > 1000 nM

Lookup: Answer with reported IC50 of COc1cccc(N2CCN(C(=O)COc3ccc4[nH]cc(CCNC(=O)OC(C)(C)C)c4c3)CC2)c1 [Example 6A, hydrochloride]
Found: > 1000 nM
